Quick reference for growth inhibition among some compounds
- TEST_DESCRIPTION: NCI Yeast Anticancer Drug Screen. Data for the cln2 rad14 strain (AID 165);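 note: 0% = growth equal to vehicle treated cultures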
- SETUP_CONDITIONS: S. cerevisiae cln2 rad14 strain, at 5.0 µM (retest, dose inferred, filed as 0.5), active compounds read high
This is part of a sample that, as a whole, favours compounds with a hit. Of some 79,000 tested, about 15% had one in any assay.

COMPOUND | growth inhibition [%]
O=C([O-])c1ccc([I+]c2ccccc2)cc1 | 1
CNC(=O)OC(C)CN1c2ccccc2Sc2ccccc21 (stereo unspecified) | -1
CN1C=CC(C(O)(c2ccccc2)c2ccccc2)CC1 (stereo unspecified) | -5
CCOC(=O)NCCCc1ccc2oc3ccccc3c2c1 | 1
O=C1NC2(C=Cc3c(ccc4ccccc34)O2)Oc2ccccc21 (stereo unspecified) | 31
O=C1OC(=O)C2C3CCC(C3=C3CCCCC3)C12 (stereo unspecified) | 5

---

- TEST_DESCRIPTION: NCI Yeast Anticancer Drug Screen. Data for the sgs1 mgt1 strain (AID 161);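 note: 0% = growth of cultures given vehicle only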
- SETUP_CONDITIONS: S. cerevisiae sgs1 mgt1 strain, at 50.0 µM (retest, dose inferred, filed as 5.0)
About 79,000 compounds went through this panel and 15% of them were active in at least one assay; those are over-represented in the sample as a whole. Calls of active or inactive are those of the source. Cut-off read from the data, not from the text of the source: active = growth inhibition above about 70%; inactive = the rest.
Labels: class 1 for active, class 0 for inactive

COMPOUND | ASSIGNED_CATEGORY
CCOC(=O)C(C(=O)OCC)C1(c2ccccc2)OC(=O)c2ccccc21 (stereo unspecified) | class 0
CC(=O)c1ccc(Br)cc1NC1=CC(=O)c2ncccc2C1=O | class 1
CCCCSc1n[nH]c(=O)nc1SC | class 1
CC(C(O)c1ccccc1)C(O)(C(F)(F)F)C(F)(F)F (stereo unspecified) | class 0
C/C(=N\NC(=S)N(C)CCN(C)C(=S)N/N=C(\C)c1ccccn1)c1ccccn1 | class 1
CC1C(c2ccc3c(c2)OCO3)c2cc3c(cc2OC1N1CCOCC1)OCO3 (stereo unspecified) | class 0

---

- TEST_DESCRIPTION: NCI Yeast Anticancer Drug Screen. Data for the mlh1 rad18 strain (AID 175)
- SETUP_CONDITIONS: S. cerevisiae mlh1 rad18 strain growth inhibition; at 50.0 µM; active compounds read high
This is part of a sample that, as a whole, favours compounds with a hit. Of some 79,000 tested, about 15% had one in any assay.
MEASURED_PARAMETER: growth inhibition (%)

MOLECULE | MEASURED_PARAMETER | OBSERVED_MEASUREMENT
C/C(=N\NC(=S)NCc1ccccc1)c1nccnc1C | growth inhibition | 91.7
Cc1cc(Br)c(N2C3=C(CC4=C2CCCC4=O)C(=O)CCC3)c(Br)c1 | growth inhibition | 97.8
O=C(O)c1c(Cl)c(Cl)c(Cl)c(Cl)c1-c1c2cc(I)c(=O)c(I)c-2oc2c(I)c(O)c(I)cc12 | growth inhibition | 91.2
CCOC(=O)c1c(C)[nH]c(C(c2ccccc2)c2[nH]c(C)c(C(=O)OCC)c2C)c1C | growth inhibition | 48.8
NC1CCCCC1N.O=S(=O)([O-])CCCN1CCN(CCO)CC1.O=S(=O)([O-])CCCN1CCN(CCO)CC1.[Pt+4] | growth inhibition | 24.4
Cc1ccc(/C=C2\CN(C)CC3=C2NC(=S)NC3c2ccc(C)cc2)cc1 (stereo unspecified) | growth inhibition | 58.3
Cc1[nH]nc(-c2ccon2)c1N=O | growth inhibition | 58.4
CC1CN(CC(O)c2ccc(Br)cc2)CC(C)O1 (stereo unspecified) | growth inhibition | 41.8
CN(C)CC1CC/C(=C\c2ccc(O)cc2)C1=O (stereo unspecified) | growth inhibition | 90.6
O=C([O-])c1ccc([I+]c2ccccc2)cc1 | growth inhibition | 80.9
C=C(Cl)C(=NC(C)(C)C)Nc1ccccc1C | growth inhibition | 40.1

---

Listed next: entries and their corresponding growth inhibition.
- TEST_DESCRIPTION: NCI Yeast Anticancer Drug Screen. Data for the mlh1 rad18 strain (AID 175)
- SETUP_CONDITIONS: S. cerevisiae mlh1 rad18 strain growth inhibition; at 5.0 µM (retest, dose inferred, filed as 0.5); active compounds read high
About 79,000 compounds went through this panel and 15% of them were active in at least one assay; those are over-represented in the sample as a whole. The source made the active and inactive calls. Rule as the data show it: active = growth inhibition above about 70%; inactive = the rest.

MOLECULE | growth inhibition
O=C1CC(=S)NC(=S)N1 | -3% (inactive)
CC(C)CC(CC(C)C)OP(=O)(O)OC(CC(C)C)CC(C)C | 9% (inactive)
Fc1ccc(CN2COc3c(cc(Cl)c4cccnc34)C2)cc1 | 11% (inactive)
O=[N+]([O-])c1ccc(Cl)cc1C=NC12CC3CC(CC(C3)C1)C2 | 13% (inactive)
CCN(CC)CCOC(=O)Cc1cccc2c(=O)cc(-c3cccs3)oc12 | 10% (inactive)
COC1(OC)OC2=C(OC1(OC)OC)c1ccccc1C2=O | 14% (inactive)
CCC(=O)/C(=C\I)c1ccccc1 | 21% (inactive)
NCCCSc1ccc(Br)cc1 | -4% (inactive)
CCC[CH2][Sn]([CH2]CCC)([O]C(=O)c1c(F)cccc1F)[O]C(=O)c1c(F)cccc1F | 73% (active)
O=C1CCC(=O)c2c1c(O)c1ccncc1c2O | 41% (inactive)
CCCCCCCCCCCCCCCCNc1ccn(C2CC(OP(=O)(O)OCC3OC(n4cc(CC)c(=O)[nH]c4=O)CC3O)C(CO)O2)c(=O)n1 (stereo not drawn) | 59% (inactive)
Cc1nc(N2N=C(c3ccc(Cl)cc3)CCC2=O)sc1[N+](=O)[O-] | -12% (inactive)
COc1ccc(Cc2ccc(N)cc2)cc1 | -132% (inactive)
CCOC(=O)C(CCSC)C(=O)OCC | -3% (inactive)
Cn1cc(C2=CC(=O)C=CC2=O)c2ccccc21 | 2% (inactive)
COC(=O)c1cc2c(c(C(=O)OC)c1O)C(=O)C=CC2=O | -28% (inactive)
CN(C)c1ccc(C(=C2C=CC(=[N+](C)C)C=C2)c2ccc(N(C)C)cc2)cc1 (tested in a mixture with another compound) | 98% (active)
CC(=O)N=C1N(/C=C2\C(=O)Oc3ccccc3C2=O)C(=O)/C(=C/c2ccco2)N1C | -17% (inactive)
CCCCCCCCCCCCCCSC(=NC)NC | 98% (active)
CCCCC(CC)(CCC)CCN (stereo not drawn) | -1% (inactive)
CC(C)N(C(=O)c1ccc(Cl)c(Cl)c1)C(C)C | -12% (inactive)
COc1ccc2nc3cc(Cl)ccc3c(NCCNCCCNC(=O)c3cc(-c4ccccc4)nc4ccccc34)c2c1 | -11% (inactive)
CCN1/C(=C\c2cc[n+](CC)c3ccccc23)C=Cc2ccccc21 | 1% (inactive)

---

growth inhibition overview
- TEST_DESCRIPTION: NCI Yeast Anticancer Drug Screen. Data for the mlh1 rad18 strain (AID 175)
- SETUP_CONDITIONS: S. cerevisiae mlh1 rad18 strain growth inhibition; at 50.0 µM; active compounds read high
About 79,000 compounds went through this panel and 15% of them were active in at least one assay; those are over-represented in the sample as a whole.
MEASURED_PARAMETER: growth inhibition (%)

COMPOUND | MEASURED_PARAMETER | OBSERVED_MEASUREMENT
CN(C)/N=C(/CC(O)(C(F)(F)F)C(F)(F)F)c1ccc([N+](=O)[O-])cc1 | growth inhibition | -16.4
CNC(=O)OC(C)CN1c2ccccc2Sc2ccccc21 (configuration not stated) | growth inhibition | 91.4
Cc1nc2sc3c(c2c2nnnn12)CCCC3 | growth inhibition | 9.45
CCOC(=O)/C(Cl)=C(\OCC)C(=O)OCC | growth inhibition | 21.1
C[CH2][Sn]([CH2]C)([O]C(=O)c1cccc(OC)c1)[O][Sn]([CH2]C)([CH2]C)[O]C(=O)c1cccc(OC)c1 | growth inhibition | 56.5
Clc1ccc(N=Cc2c3ccccc3cc3ccccc23)c(Cl)c1 | growth inhibition | 77.5
COC(=O)c1nc(=S)[nH]c(C(=O)OC)c1C(=O)c1ccc2ccccc2c1 | growth inhibition | 94.5
O=C1C=C(Br)C(=O)C(Br)=C1 | growth inhibition | 97.5
NC(=S)N/N=C1/C(=O)c2cccc3cccc1c23 | growth inhibition | 70.5
CCCCCCCCCCCCCCCCNC(=S)N/C=C(/C#N)C(=O)OC | growth inhibition | 99.2
CCCCNC(=S)NC1C2CC3CC(C2)CC1C3 (configuration not stated) | growth inhibition | 97.2
COC1C=COC2(C)Oc3c(C)c(O)c4c(O)c(c(C5SCCS5)c(O)c4c3C2=O)NC(=O)C(C)=C/C=C\C(C)C2OC(C)(C)OC(C2C)C(C)C(OC(C)=O)C1C (configuration not stated) | growth inhibition | 87.8
CC(=O)c1c(CO[N+](=O)[O-])n([O-])c2ccccc2[n+]1=O | growth inhibition | 45.9
O=C1C=CC(=O)N1c1cccc(F)c1 | growth inhibition | 99.4
C/C(=N/Nc1ccccc1)C(=O)O | growth inhibition | 97.2
CC(=O)Nc1ccc2c(c1)C(=O)c1cccc(F)c1-2 | growth inhibition | 45.9
CCCCCCCCC(C)c1ccccc1O (configuration not stated) | growth inhibition | 99.4
COc1ccc2nc3cc([N+](=O)[O-])ccc3c(NNc3ccc([N+](=O)[O-])cc3)c2c1 | growth inhibition | 66.2
CC(CO)(Nc1ccc([N+](=O)[O-])cc1[N+](=O)[O-])C(=O)O (configuration not stated) | growth inhibition | 97.5
O=C(OCC1OC(c2nn[nH]n2)C(OC(=O)c2ccccc2)C1OC(=O)c1ccccc1)c1ccccc1 (configuration not stated) | growth inhibition | -33.6
C/C(=C\c1ccccc1)c1ccncc1 | growth inhibition | 54.9
CC(C(=O)O)c1c(-c2ccccc2)ccc2ccccc12 (configuration not stated) | growth inhibition | 63.6
CCCCCCCCCCCCCCNCc1ccccc1 | growth inhibition | 97.5
CCOC(=O)/C(=C\c1ccc(-c2ccccc2)cc1)C(C)=O | growth inhibition | 76.6
O=C(C=P(c1ccccc1)(c1ccccc1)c1ccccc1)CC(=S)CC(=O)C=P(c1ccccc1)(c1ccccc1)c1ccccc1 | growth inhibition | 95.2
COC(O)C(=O)c1c2c(cc3c1CC1(Cc4cc5c(cc4C1)CCC5)C3)CCC2 (configuration not stated) | growth inhibition | 90.5
Cc1c(CCl)c(=O)oc2c(C)c3occ(CCl)c(=O)c3cc12 | growth inhibition | 77.7
CN=C(N)N/N=C(\C)c1ccc2c(c1)Cc1cc(/C(C)=N/NC(N)=NC)ccc1-2 | growth inhibition | 86.4
O=C1C=CC(=O)N1C1c2ccccc2-c2ccccc21 | growth inhibition | 97.1
CC(C(O)c1ccccc1)[N+](=O)[O-] (configuration not stated) | growth inhibition | 38.5
COc1nc(Nc2ccc(/C=C/c3ccc(Nc4nc(OC)nc(N(CCO)CCO)n4)cc3S(=O)(=O)O)c(S(=O)(=O)O)c2)nc(N(CCO)CCO)n1 | growth inhibition | 80.4
CN(C)c1cccc(F)c1C(=O)NC(=O)Nc1ccc(Cl)cc1 | growth inhibition | 91.5
COC1/C=C/OC2(C)Oc3c(C)c(O)c4c(c3C2=O)C(=O)C=C(NC(=O)/C(C)=C\C=C\C(C)C(OC=O)C(C)C(O)C(C)C(OC(C)=O)C1C)C4=O (configuration not stated) | growth inhibition | 55.7
O=Nc1cc(-c2ccccc2)c2ccccc2c1O | growth inhibition | 2.45
CCCCC(=O)N/N=C/c1ccc([N+](=O)[O-])s1 | growth inhibition | 97
COCCCNC(=S)N/N=C/c1cc(Cl)cc(Cl)c1O | growth inhibition | 85.2
Cc1ccnc2c1ccc1c(C)ccnc12 | growth inhibition | 99
CS(=O)(=O)OCCCN(CCCOS(C)(=O)=O)c1ccc(C=Nc2ccc(-c3csc(COc4ccc(Br)cc4Br)n3)cc2)cc1 | growth inhibition | 90.7
COC(=O)[C@@]12OC[C@]34[C@H]([C@@H](O)[C@@H]1O)[C@@]1(C)[C@H](O)C(=O)C=C(C)[C@@H]1C[C@H]3OC(=O)C(OC(C)=O)[C@@H]24 (some centres not stated) | growth inhibition | 90.8
CCCCCCCCCCCCCCCCOP(=O)([O-])OCC[N+](C)(C)C | growth inhibition | 99.8
COC(=O)CCC(NC(=S)N/N=C/c1ccccn1)C(=O)OC (configuration not stated) | growth inhibition | 61.8
COC(=O)c1[nH]cnc1/N=N/N(C)C | growth inhibition | 99.3
